Quick list: MIC per entry.
# Test system: Mycobacterium tuberculosis
# Assay summary: Antimycobacterial activity against Mycobacterium tuberculosis H37Ra by microplate alamar blue assay
# Assay type: functional
Answer format: numeric, µg/mL implied, no suffix.

Illustrative cases are given below, each with its answer.
INSERT INTO assay_data (molecule, test_system, result_value) VALUES
  ('C=C1CC[C@@H]2[C@@]3(C)CCC[C@@]2(C(=O)OC3)[C@@H]1CC(=O)c1ccoc1', 'Mycobacterium tuberculosis', 100),
  ('C=C1CC[C@@H]2[C@](C)(COC(C)=O)CCC[C@@]2(C=O)[C@@H]1CCc1ccoc1 [POTAMOGETONYDE]', 'Mycobacterium tuberculosis', 100),
  ('NC[C@H]1O[C@H](O[C@H]2[C@H](O)[C@@H](O[C@H]3O[C@H](CO)[C@@H](O)[C@H](N)[C@H]3O)[C@H](N)C[C@@H]2N)[C@H](O)[C@@H](O)[C@@H]1O.O=S(=O)(O)O [KANAMYCIN SULFATE]', 'Mycobacterium tuberculosis', 2),
  ('NNC(=O)c1ccncc1 [ISONIAZID]', 'Mycobacterium tuberculosis', 0.04);

Query: Look up MIC for this molecule: C=C1CC[C@@H]2[C@](C)(COC(C)=O)CCC[C@@]2(CO)[C@@H]1CCc1ccoc1 [POTAMOGETONOL]
Result: 50

Query: Look up MIC for this molecule: C=C1CC[C@@H]2[C@@]3(C)CCC[C@@]2(C(=O)OC3)[C@@H]1CCc1ccoc1 [POTAMOGETONIN]
Result: 100

----------
# Assay summary: Cytotoxicity against Aedes albopictus C6/36 cells after 24 hrs by MTT assay
# Assay type: functional, cell-based
# Test settings: C6/36, 24 h
Mark T for IC50 under 40 µg/mL, F if at or over.

Answered cases to consult:
INSERT INTO measurements (line_notation, group) VALUES
  ('C=C1CC[C@@H]2[C@](C)(COC(C)=O)CCC[C@@]2(C=O)[C@@H]1CCc1ccoc1', 'T'),
  ('C=C1CC[C@@H]2[C@@]3(C)CCC[C@@]2(C(=O)OC3)[C@@H]1CCc1ccoc1', 'T'),
  ('CO[C@@]12[C@H](COC(N)=O)C3=C(C(=O)C(C)=C(N)C3=O)N1C[C@@H]1N[C@@H]12', 'T'),
  ('C=C1CC[C@@H]2[C@@]3(C)CCC[C@@]2(C(=O)OC3)[C@@H]1CC(=O)c1ccoc1', 'F');

Now turn to the next molecule.
Query: A record lists "C=C1CC[C@@H]2[C@](C)(COC(C)=O)CCC[C@@]2(CO)[C@@H]1CCc1ccoc1" . Is its IC50 below 40 µg/mL?
Result: F

----------
Quick list: IC50 per entry.
# Assay summary: Cytotoxicity against human BC cells by SRB assay
# Type: functional, cell-based

INSERT INTO results (line_notation, result_value) VALUES
  ('C=C1CC[C@@H]2[C@@]3(C)CCC[C@@]2(C(=O)OC3)[C@@H]1CC(=O)c1ccoc1', '> 20 µg/mL'),
  ('Cc1c2ccncc2c(C)c2c1[nH]c1ccccc12', '0.1 µg/mL'),
  ('C=C1CC[C@@H]2[C@](C)(COC(C)=O)CCC[C@@]2(C=O)[C@@H]1CCc1ccoc1', '> 20 µg/mL'),
  ('C=C1CC[C@@H]2[C@](C)(COC(C)=O)CCC[C@@]2(CO)[C@@H]1CCc1ccoc1', '> 20 µg/mL');

Query: Look up IC50 for this compound: "C=C1CC[C@@H]2[C@@]3(C)CCC[C@@]2(C(=O)OC3)[C@@H]1CCc1ccoc1"
Result: > 20 µg/mL

These data points were gathered from ChEMBL document CHEMBL1150578.
